assay: Inhibition of rat intestinal alpha-glucosidase using p-nitrophenyl-alpha-D-glucopyranoside substrate by spectrophotometry

compound | unit name | inequality sign | IC50
C=C[C@@]1(C)CC(=O)[C@@]23O[C@@H](C)O[C@H]4CCC(C)(C)[C@H]([C@H](O)[C@H](OC(C)=O)[C@@]2(C)O1)[C@]43C | µg/mL | = | 5.87
C=C[C@@]1(C)CC(=O)[C@@]23O[C@@H](c4ccccc4)O[C@H]4CCC(C)(C)[C@H]([C@H](O)[C@H](OC(C)=O)[C@@]2(C)O1)[C@]43C | µg/mL | = | 2.81
C=C[C@@]1(C)CC(=O)[C@@]23O[C@@H](c4ccccc4)O[C@H]4CCC(C)(C)[C@H]([C@H](OC(C)=O)[C@H](O)[C@@]2(C)O1)[C@]43C | µg/mL | = | 4.14
C=C[C@@]1(C)CC(=O)[C@@]23O[C@@H](c4cccs4)O[C@H]4CCC(C)(C)[C@H]([C@H](O)[C@H](OC(C)=O)[C@@]2(C)O1)[C@]43C | µg/mL | > | 100
C=C[C@@]1(C)CC(=O)[C@@]23O[C@@H](c4ccco4)O[C@H]4CCC(C)(C)[C@H]([C@H](O)[C@H](OC(C)=O)[C@@]2(C)O1)[C@]43C | µg/mL | = | 4.96
C=C[C@@]1(C)CC(=O)[C@@]23O[C@@H](/C=C/c4ccccc4)O[C@H]4CCC(C)(C)[C@H]([C@H](O)[C@H](OC(C)=O)[C@@]2(C)O1)[C@]43C | µg/mL | = | 0.74
C=C[C@@]1(C)CC(=O)[C@@]23O[C@@H](c4ccc([N+](=O)[O-])cc4)O[C@H]4CCC(C)(C)[C@H]([C@H](O)[C@H](OC(C)=O)[C@@]2(C)O1)[C@]43C | µg/mL | = | 0.76
C=C[C@@]1(C)CC(=O)[C@@]23O[C@@H](c4ccccc4)O[C@H]4CCC(C)(C)[C@H]([C@H](O)[C@H](O)[C@@]2(C)O1)[C@]43C | µg/mL | > | 100
C=C[C@@]1(C)CC(=O)[C@@]23O[C@@H](C)O[C@H]4CCC(C)(C)[C@H]([C@H](OC(C)=O)[C@H](O)[C@@]2(C)O1)[C@]43C | µg/mL | = | 6.4
C=C[C@@]1(C)CC(=O)[C@@]23O[C@@H](c4ccc(Br)cc4)O[C@H]4CCC(C)(C)[C@H]([C@H](O)[C@H](OC(C)=O)[C@@]2(C)O1)[C@]43C | µg/mL | > | 100
C=C[C@@]1(C)CC(=O)[C@@]23O[C@@H](C)O[C@H]4CCC(C)(C)[C@H]([C@H](O)[C@H](O)[C@@]2(C)O1)[C@]43C | µg/mL | = | 4.23
C[C@H]1O[C@H](O[C@H]2[C@H](O)[C@@H](O)[C@@H](O[C@H]3[C@H](O)[C@@H](O)C(O)O[C@@H]3CO)O[C@@H]2CO)[C@H](O)[C@@H](O)[C@@H]1N[C@H]1C=C(CO)[C@@H](O)[C@H](O)[C@H]1O (some centres not stated) | µg/mL | = | 0.45

----------
tested on: HeLa; assay: Anticancer activity against human HeLa cells after 24 hrs by MTT assay; format: functional, cell-based
outcome measure: IC50 (mg/L)

structure as smiles | tested on | outcome measure | unit name | inequality sign | observed value
C=C[C@@]1(C)CC(=O)[C@@]23O[C@@H](c4ccccc4)O[C@H]4CCC(C)(C)[C@H]([C@H](O)[C@H](O)[C@@]2(C)O1)[C@]43C | HeLa | IC50 | mg/L | = | 3.89
C=C[C@@]1(C)CC(=O)[C@@]23O[C@@H](C)O[C@H]4CCC(C)(C)[C@H]([C@H](OC(C)=O)[C@H](O)[C@@]2(C)O1)[C@]43C | HeLa | IC50 | mg/L | = | 17.4
C=C[C@@]1(C)CC(=O)[C@@]23O[C@@H](c4cccs4)O[C@H]4CCC(C)(C)[C@H]([C@H](O)[C@H](OC(C)=O)[C@@]2(C)O1)[C@]43C | HeLa | IC50 | mg/L | = | 42
C=C[C@@]1(C)CC(=O)[C@@]23O[C@@H](c4ccccc4)O[C@H]4CCC(C)(C)[C@H]([C@H](OC(C)=O)[C@H](O)[C@@]2(C)O1)[C@]43C | HeLa | IC50 | mg/L | = | 9.22
C=C[C@@]1(C)CC(=O)[C@@]23O[C@@H](/C=C/c4ccccc4)O[C@H]4CCC(C)(C)[C@H]([C@H](O)[C@H](OC(C)=O)[C@@]2(C)O1)[C@]43C | HeLa | IC50 | mg/L | > | 100
COc1cc([C@@H]2c3cc4c(cc3[C@H](O)[C@H]3COC(=O)[C@H]23)OCO4)cc(OC)c1OC | HeLa | IC50 | mg/L | = | 3.14
C=C[C@@]1(C)CC(=O)[C@@]23O[C@@H](C)O[C@H]4CCC(C)(C)[C@H]([C@H](O)[C@H](OC(C)=O)[C@@]2(C)O1)[C@]43C | HeLa | IC50 | mg/L | > | 100
C=C[C@@]1(C)CC(=O)[C@@]23O[C@@H](c4ccc(Br)cc4)O[C@H]4CCC(C)(C)[C@H]([C@H](O)[C@H](OC(C)=O)[C@@]2(C)O1)[C@]43C | HeLa | IC50 | mg/L | = | 46.2
C=C[C@@]1(C)CC(=O)[C@@]23O[C@@H](C)O[C@H]4CCC(C)(C)[C@H]([C@H](O)[C@H](O)[C@@]2(C)O1)[C@]43C | HeLa | IC50 | mg/L | = | 0.95

----------
test: Anticancer activity against human SH-SY5Y cells after 24 hrs by MTT assay; format: functional, cell-based

compound | IC50
C=C[C@@]1(C)CC(=O)[C@@]23O[C@@H](c4ccco4)O[C@H]4CCC(C)(C)[C@H]([C@H](O)[C@H](OC(C)=O)[C@@]2(C)O1)[C@]43C | > 100 µg/mL
C=C[C@@]1(C)CC(=O)[C@@]23O[C@@H](C)O[C@H]4CCC(C)(C)[C@H]([C@H](O)[C@H](OC(C)=O)[C@@]2(C)O1)[C@]43C | > 100 µg/mL
CC(=O)O[C@H]1C(=O)[C@@]2(C)[C@H]([C@H](OC(=O)c3ccccc3)[C@]3(O)C[C@H](OC(=O)[C@H](O)[C@@H](NC(=O)c4ccccc4)c4ccccc4)C(C)=C1C3(C)C)[C@]1(OC(C)=O)CO[C@@H]1C[C@@H]2O [PACLITAXEL] | 7.3 µg/mL
C=C[C@@]1(C)CC(=O)[C@@]23O[C@@H](c4ccccc4)O[C@H]4CCC(C)(C)[C@H]([C@H](OC(C)=O)[C@H](O)[C@@]2(C)O1)[C@]43C | 16.6 µg/mL
C=C[C@@]1(C)CC(=O)[C@@]23O[C@@H](c4ccc([N+](=O)[O-])cc4)O[C@H]4CCC(C)(C)[C@H]([C@H](O)[C@H](OC(C)=O)[C@@]2(C)O1)[C@]43C | > 100 µg/mL
C=C[C@@]1(C)CC(=O)[C@@]23O[C@@H](/C=C/c4ccccc4)O[C@H]4CCC(C)(C)[C@H]([C@H](O)[C@H](OC(C)=O)[C@@]2(C)O1)[C@]43C | > 100 µg/mL
C=C[C@@]1(C)CC(=O)[C@@]23O[C@@H](C)O[C@H]4CCC(C)(C)[C@H]([C@H](OC(C)=O)[C@H](O)[C@@]2(C)O1)[C@]43C | > 100 µg/mL

----------
Documented IC50 across a set of compounds
test: Anticancer activity against human SH-SY5Y cells after 24 hrs by MTT assay; assay type: functional, cell-based

compound | inequality sign | IC50 / µg/mL
COc1cc([C@@H]2c3cc4c(cc3[C@H](O)[C@H]3COC(=O)[C@H]23)OCO4)cc(OC)c1OC [PODOFILOX] | = | 1.05
C=C[C@@]1(C)CC(=O)[C@@]23O[C@@H](c4ccc(Br)cc4)O[C@H]4CCC(C)(C)[C@H]([C@H](O)[C@H](OC(C)=O)[C@@]2(C)O1)[C@]43C | > | 100
C=C[C@@]1(C)CC(=O)[C@@]23O[C@@H](c4ccccc4)O[C@H]4CCC(C)(C)[C@H]([C@H](O)[C@H](O)[C@@]2(C)O1)[C@]43C | = | 21.6
C=C[C@@]1(C)CC(=O)[C@@]23O[C@@H](c4ccccc4)O[C@H]4CCC(C)(C)[C@H]([C@H](O)[C@H](OC(C)=O)[C@@]2(C)O1)[C@]43C | > | 100
C=C[C@@]1(C)CC(=O)[C@@]23O[C@@H](c4cccs4)O[C@H]4CCC(C)(C)[C@H]([C@H](O)[C@H](OC(C)=O)[C@@]2(C)O1)[C@]43C | > | 100
C=C[C@@]1(C)CC(=O)[C@@]23O[C@@H](C)O[C@H]4CCC(C)(C)[C@H]([C@H](O)[C@H](O)[C@@]2(C)O1)[C@]43C | = | 34.7

Every entry's value here was drawn from ChEMBL document CHEMBL3352073.
